Parameter: EC50. Scope: all listed entries.
- target-system: S. aureus Alpha hemolysin (Staphylococcus aureus)
- test-protocol: cell-based
- assay-context: A549-LDH Assay activity

[
  {
    "smiles-data": "Cc1cc2[nH]c(=O)c(=O)[nH]c2cc1S(=O)(=O)Nc1ccc(-c2ccc(F)c(Cl)c2)c(Cl)c1",
    "value": "0.1 to 1 µM"
  },
  {
    "smiles-data": "O=c1[nH]c2cc(Cl)c(S(=O)(=O)Nc3ccc(-c4ccccc4)c(Cl)c3)cc2[nH]c1=O",
    "value": "0.1 to 1 µM"
  },
  {
    "smiles-data": "Cc1cc2[nH]c(=O)c(=O)[nH]c2cc1S(=O)(=O)Nc1ccc(-n2ccnn2)c(Cl)c1",
    "value": "0.1 to 1 µM"
  }
]

Which EC50 reading was recorded for the molecule `Cc1cc2[nH]c(=O)c(=O)[nH]c2cc1S(=O)(=O)Nc1ccc(-c2ccc(C#N)c(N(C)C)c2)c(Cl)c1` ? 0.1 to 1 µM

Which EC50 reading was recorded for the molecule `Cc1cc2[nH]c(=O)c(=O)[nH]c2cc1S(=O)(=O)Nc1ccc(C(F)(F)F)c(Cl)c1` ? 1 to 6 µM

Which EC50 reading was recorded for the molecule `Cc1cc2[nH]c(=O)c(=O)[nH]c2cc1S(=O)(=O)Nc1ccc(-c2cccc(Br)c2)c(Cl)c1` ? 0.1 to 1 µM

Which EC50 reading was recorded for the molecule `O=c1[nH]c2cc(F)c(S(=O)(=O)Nc3ccc(-c4cccc(N5CCCC5)c4)c(Cl)c3)cc2[nH]c1=O` ? 1 to 6 µM

====

- target-system: hemolysin alpha from Staphylococcus aureus (Staphylococcus aureus)
- Sequence (P09616 27-319 limits assumed): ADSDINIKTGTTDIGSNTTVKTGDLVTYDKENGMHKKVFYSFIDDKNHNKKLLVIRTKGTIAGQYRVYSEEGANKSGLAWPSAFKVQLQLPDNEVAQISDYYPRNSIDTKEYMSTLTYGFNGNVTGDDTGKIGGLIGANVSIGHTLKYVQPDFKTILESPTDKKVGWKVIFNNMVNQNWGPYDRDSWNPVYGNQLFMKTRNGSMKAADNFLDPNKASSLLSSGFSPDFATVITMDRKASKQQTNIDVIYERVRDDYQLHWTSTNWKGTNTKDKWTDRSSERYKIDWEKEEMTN
- test-protocol: cell-based
pEC50: −log10 of the molar value.
parameter: pEC50

[
  {
    "compound": "Cc1cc2[nH]c(=O)c(=O)[nH]c2cc1S(=O)(=O)Nc1ccc(-c2ccc(F)cc2)c(C#N)c1",
    "target-system": "hemolysin alpha from Staphylococcus aureus (Staphylococcus aureus)",
    "pEC50": "6.00 to 7.00"
  },
  {
    "compound": "Cc1cc2[nH]c(=O)c(=O)[nH]c2cc1S(=O)(=O)Nc1ccc(-c2ccn3ncnc3c2)c(Cl)c1",
    "target-system": "hemolysin alpha from Staphylococcus aureus (Staphylococcus aureus)",
    "pEC50": "7.00 to 7.52"
  },
  {
    "compound": "CCOc1cc2[nH]c(=O)c(=O)[nH]c2cc1S(=O)(=O)Nc1ccc(OC(F)(F)F)cc1",
    "target-system": "hemolysin alpha from Staphylococcus aureus (Staphylococcus aureus)",
    "pEC50": "6.00 to 7.00"
  },
  {
    "compound": "Cc1cc2[nH]c(=O)c(=O)[nH]c2cc1S(=O)(=O)Nc1ccc(N2CCOC(C)C2)c(Cl)c1 (stereo not drawn)",
    "target-system": "hemolysin alpha from Staphylococcus aureus (Staphylococcus aureus)",
    "pEC50": "5.46 to 6.00"
  },
  {
    "compound": "Cc1cc2[nH]c(=O)c(=O)[nH]c2cc1S(=O)(=O)Nc1cc(Cl)c(-c2ccc(F)c(Cl)c2)cn1",
    "target-system": "hemolysin alpha from Staphylococcus aureus (Staphylococcus aureus)",
    "pEC50": "6.00 to 7.00"
  }
]

Which pEC50 reading was recorded for the compound `Cc1ccc(-c2ccc(NS(=O)(=O)c3cc4[nH]c(=O)c(=O)[nH]c4cc3C)cc2Cl)cc1C` ? 6.00 to 7.00

Which pEC50 reading was recorded for the compound `Cc1cc2[nH]c(=O)c(=O)[nH]c2cc1S(=O)(=O)Nc1cnc(-c2cncc(Cl)c2)c(Cl)c1` ? 6.00 to 7.00

Which pEC50 reading was recorded for the compound `Cc1cc2[nH]c(=O)c(=O)[nH]c2cc1S(=O)(=O)Nc1ccc(-c2cccc(P(C)(C)=O)c2)c(Cl)c1` ? 6.00 to 7.00

Which pEC50 reading was recorded for the compound `Cc1cc2[nH]c(=O)c(=O)[nH]c2cc1S(=O)(=O)Nc1ccc(-c2ccc(OC(C)C)nc2)c(Cl)c1` ? 6.00 to 7.00

Which pEC50 reading was recorded for the compound `COc1ccc(-c2ccc(NS(=O)(=O)c3cc4[nH]c(=O)c(=O)[nH]c4cc3C)cc2Br)cc1F` ? > 7.52

Which pEC50 reading was recorded for the compound `Cc1cc2[nH]c(=O)c(=O)[nH]c2cc1S(=O)(=O)Nc1ccc(-c2ccc3c(c2)OC(F)(F)O3)c(Cl)c1` ? 7.00 to 7.52

====

- target-system: S. aureus Alpha hemolysin (Staphylococcus aureus)
- test-protocol: cell-based
- assay-context: A549-LDH Assay activity
pEC50: −log10 of the molar value.
parameter: pEC50

[
  {
    "compound": "Cc1cc2[nH]c(=O)c(=O)[nH]c2cc1S(=O)(=O)Nc1ccc(-c2ccc3c(c2)NCCO3)c(Cl)c1 [Compound 353]",
    "pEC50": "6.00 to 7.00"
  }
]

Which pEC50 reading was recorded for the compound Cc1cc(NS(=O)(=O)c2cc3[nH]c(=O)c(=O)[nH]c3cc2Cl)ccc1-c1ccccc1 [Compound 45] ? 7.00 to 7.52

Which pEC50 reading was recorded for the compound Cc1ccc(-c2c(C)cc(NS(=O)(=O)c3cc4[nH]c(=O)c(=O)[nH]c4cc3C)cc2C)o1 [Compound 84] ? 6.00 to 7.00

====

- target-system: S. aureus Alpha hemolysin (Staphylococcus aureus)
- test-protocol: cell-based
- assay-context: A549-LDH Assay activity
pEC50: −log10 of the molar value.
Parameter: pEC50. Scope: all listed entries.

See these solved cases before continuing.
[
  {
    "smiles-data": "Cc1cc2[nH]c(=O)c(=O)[nH]c2cc1S(=O)(=O)Nc1ccc(C2CCCCC2)cc1",
    "target-system": "S. aureus Alpha hemolysin (Staphylococcus aureus)",
    "pEC50": "6.00 to 7.00"
  },
  {
    "smiles-data": "Cc1cc2[nH]c(=O)c(=O)[nH]c2cc1S(=O)(=O)Nc1ccc(-c2ccc3c(c2)CCNC3=O)c(Cl)c1",
    "target-system": "S. aureus Alpha hemolysin (Staphylococcus aureus)",
    "pEC50": "5.22 to 6.00"
  },
  {
    "smiles-data": "Cc1cc2[nH]c(=O)c(=O)[nH]c2cc1S(=O)(=O)Nc1ccc(-c2ccc(F)cc2)c(Br)c1",
    "target-system": "S. aureus Alpha hemolysin (Staphylococcus aureus)",
    "pEC50": "7.00 to 7.52"
  },
  {
    "smiles-data": "Cc1cc2[nH]c(=O)c(=O)[nH]c2cc1S(=O)(=O)Nc1ccc(N2CCCC2)cc1",
    "target-system": "S. aureus Alpha hemolysin (Staphylococcus aureus)",
    "pEC50": "7.00 to 7.52"
  },
  {
    "smiles-data": "Cc1cc2[nH]c(=O)c(=O)[nH]c2cc1S(=O)(=O)Nc1ccc(-c2ccc3c(c2)OCCO3)c(Cl)c1",
    "target-system": "S. aureus Alpha hemolysin (Staphylococcus aureus)",
    "pEC50": "6.00 to 7.00"
  }
]

Proceed to the following item.
Which pEC50 reading was recorded for the compound `Cc1cc2[nH]c(=O)c(=O)[nH]c2cc1S(=O)(=O)Nc1cc(Cl)c(-c2cccc(Cl)c2)cn1` ? 6.00 to 7.00

====

- target-system: S. aureus Alpha hemolysin (Staphylococcus aureus, UniProt P09616)
- Sequence (P09616 27-319 limits assumed): as above
- test-protocol: cell-based
- assay-context: A549-LDH Assay activity
pEC50: −log10 of the molar value.
parameter: pEC50

See these solved cases before continuing.
[
  {
    "compound": "CN(C)c1cccc(-c2ccc(NS(=O)(=O)c3cc4[nH]c(=O)c(=O)[nH]c4cc3Cl)cc2Cl)c1 [Compound 9]",
    "pEC50": "6.00 to 7.00"
  },
  {
    "compound": "COc1ccc(-c2ccc(NS(=O)(=O)c3cc4[nH]c(=O)c(=O)[nH]c4cc3C)cc2Cl)cc1C#N [Compound 289]",
    "pEC50": "6.00 to 7.00"
  },
  {
    "compound": "Cc1cc2[nH]c(=O)c(=O)[nH]c2c(F)c1S(=O)(=O)Nc1ccc(Br)c(Cl)c1 [Compound 63]",
    "pEC50": "5.22 to 6.00"
  },
  {
    "compound": "Cc1cc2[nH]c(=O)c(=O)[nH]c2cc1S(=O)(=O)Nc1ccc(-c2ccccc2Cl)c(Cl)c1 [Compound 77]",
    "pEC50": "6.00 to 7.00"
  },
  {
    "compound": "Cc1cc2[nH]c(=O)c(=O)[nH]c2cc1S(=O)(=O)Nc1cc(C)c(-c2ccccc2)c(C)c1 [Compound 73]",
    "pEC50": "6.00 to 7.00"
  }
]

Which pEC50 reading was recorded for the compound Cc1cc2[nH]c(=O)c(=O)[nH]c2cc1S(=O)(=O)Nc1ccc(-c2ccc(F)cc2)c(Cl)c1 [Compound 3] ? 7.00 to 7.52

Which pEC50 reading was recorded for the compound O=c1[nH]c2cc(OCC(F)(F)F)c(S(=O)(=O)Nc3ccc(OC(F)(F)F)cc3)cc2[nH]c1=O [Compound 276] ? > 7.52

Which pEC50 reading was recorded for the compound Cc1cc2[nH]c(=O)c(=O)[nH]c2cc1S(=O)(=O)Nc1cc(C)c(-c2ccsc2)c(C)c1 [Compound 42] ? 6.00 to 7.00

Which pEC50 reading was recorded for the compound Cc1cc2[nH]c(=O)c(=O)[nH]c2cc1S(=O)(=O)Nc1ccc(-c2cc(Cl)cc(Cl)c2)c(Cl)c1 [Compound 315] ? 5.22 to 6.00

Which pEC50 reading was recorded for the compound Cc1ccc(-c2c(C)cc(NS(=O)(=O)c3cc4[nH]c(=O)c(=O)[nH]c4cc3C)cc2C)s1 [Compound 70] ? 6.00 to 7.00

Which pEC50 reading was recorded for the compound Cc1cc2[nH]c(=O)c(=O)[nH]c2cc1S(=O)(=O)Nc1ccc(-c2ccc(Cl)c(Cl)c2)c(Cl)c1 [Compound 257] ? 7.00 to 7.52

Which pEC50 reading was recorded for the compound CCCc1ccc(NS(=O)(=O)c2cc3[nH]c(=O)c(=O)[nH]c3cc2Br)cc1 [Compound 41] ? 7.00 to 7.52

Which pEC50 reading was recorded for the compound Cc1cc(NS(=O)(=O)c2cc3[nH]c(=O)c(=O)[nH]c3cc2F)ccc1-c1ccccc1 [Compound 33] ? 7.00 to 7.52

Which pEC50 reading was recorded for the compound O=c1[nH]c2cc(Cl)c(S(=O)(=O)Nc3ccc(C4CC4)cc3)cc2[nH]c1=O [Compound 85] ? 7.00 to 7.52

Which pEC50 reading was recorded for the compound Cc1cc2[nH]c(=O)c(=O)[nH]c2cc1S(=O)(=O)Nc1ccc(C2CCCCC2)c(Br)c1 [Compound 306] ? 6.00 to 7.00

Value source: patent US20240376084A1
